biological target: Replicase polyprotein 1ab (Severe acute respiratory syndrome coronavirus 2, UniProt P0DTD1); assay: Inhibition of recombinant SARS CoV-2 PL protease assessed as deubiquitination activity using ubiquitinated fluorogenic as substrate incubated for 2 hrs followed by substrate addition for 1 hr by synergy TM HTX microplate reader analysis
pIC50: −log10 of the molar value.
Measured property: pIC50

>>> measured_number("COc1ccc2[nH]c3c(c2c1)C[C@]1(OC)CC[C@H]2c4[nH]c5ccccc5c4CCN2[C@@H]1C3")
3.41

* * *

experiment: Stability in CD-1 mouse liver microsomes assessed as compound remaining at 1 uM measured after 60 mins in absence of NADPH by LC-MS-MS analysis; assay type: ADME, Microsome; details: read-out: Stability
Quick list: remaining at 1 h, 1 µM per entry.
Measured property: remaining at 1 h, 1 µM (%)

>>> measured_number("CC1(C)[C@H]2COc3ccc4ccccc4c3[C@H]2N=C2SC=C(c3ccc(S(=O)(=O)N4CCOCC4)cc3)N21")
92
>>> measured_number("COc1ccc2[nH]c3c(c2c1)C[C@]1(OC)CC[C@H]2c4[nH]c5ccccc5c4CCN2[C@@H]1C3")
108

* * *

test: Permeability of the compound across apical to basolateral side in human Caco-2 cells assessed as drug recovery at pH 6.5 to 7.4; type: ADME, cell-based; conditions: Caco-2, pH 6.5, read-out: Drug recovery
Measured property: recovery (%)

>>> measured_number("COc1ccc2[nH]c3c(c2c1)C[C@]1(OC)CC[C@H]2c4[nH]c5ccccc5c4CCN2[C@@H]1C3")
77

* * *

biological target: Replicase polyprotein 1ab (Severe acute respiratory syndrome coronavirus 2); experiment: Inhibition of recombinant SARS CoV-2 PL protease incubated for 2 hrs followed by substrate addition and measured after 1 hr by fluorescence based analysis
Consider the cut-off 20 µM. If the recorded IC50 is strictly smaller, the label is 1 (yes); if not, the label is 0 (no).

>>> answer_label("COC(=O)[C@H](Cc1ccc(OC)c(OC)c1)N1CC(c2cc(C)ccc2O)=N[C@@H](Cc2ccc(OC)c(OC)c2)C1=O")
"0 (no)"
>>> answer_label("COc1ccc2[nH]c3c(c2c1)C[C@]1(OC)CC[C@H]2c4[nH]c5ccccc5c4CCN2[C@@H]1C3")
"1 (yes)"
>>> answer_label("COc1ccc2[nH]cc(CCN3C(=O)[C@H](c4nnc(-c5cccc(C(F)(F)F)c5)o4)[C@H](CC(=O)O)COc4ccccc4[C@@H]3C(=O)NC(C)(C)C)c2c1")
"1 (yes)"
>>> answer_label("COc1ccc2[nH]c3c(c2c1)C[C@]1(OC)CC[C@H]2c4c[nH]c5cccc(c45)CCN2[C@@H]1C3")
"0 (no)"
>>> answer_label("FC(F)(F)Oc1ccc(N/N=C2/C=C[C@@]3(CC2)CC[C@@H]2NCCc4cccc5[nH]c3c2c45)cc1")
"0 (no)"

All figures here come from ChEMBL document CHEMBL5325427.
